Please consider the recorded pIC50 for Voltage-gated inwardly rectifying potassium channel KCNH2 (Homo sapiens, UniProt Q12809) in what follows.
Answers are plain numbers, as −log10 of the molar value.

The following molecules have reported results that may help.
Give the value of pIC50 reported for the following: CCOC(=O)N1CCC(CN2CCC3(CC2)CN(C(=O)N(CC)CC)c2ncccc23)CC1 5.60

Give the value of pIC50 reported for the following: CCOC(=O)N1CCC(CN2CCC3(CC2)CN(C(=O)NC)c2ncccc23)CC1 6.52

Turning now to a further record.
Give the value of pIC50 reported for the following: CCNC(=O)N1CC2(CCN(CC3CCN(C(=O)OCC)CC3)CC2)c2cccnc21 6.64
